Just for reference, patent US20250197488A1 is where these values come from.

- target entity: T1, human IL-11 (AAH12506.1, Pro22-Leu199) (human, UniProt P20809 22-199)
- T1 construct: The range Pro22-Leu199 counts on AAH12506.1; The Octet runs say only 'human IL-11'; also called hIL-11
- T1 chain: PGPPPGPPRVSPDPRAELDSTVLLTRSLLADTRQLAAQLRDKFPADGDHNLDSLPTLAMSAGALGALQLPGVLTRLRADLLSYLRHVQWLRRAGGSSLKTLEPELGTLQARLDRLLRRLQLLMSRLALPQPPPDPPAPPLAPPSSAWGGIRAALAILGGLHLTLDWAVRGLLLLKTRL
- test description: BLI (Octet), antibody captured, human IL-11 in solution
quantity kind: kon (M⁻¹ s⁻¹)

[[record]]
binder = "hz8C8-VHm1-m6 + hz8C8-VLm7-m2 (antibody, human IgG1, kappa, V domains shown, human IgG1 constant regions) VH: EVQLVESGGGLVQPGGSLRLSCAASGFTFSSFGMHWVRQAPGKGLEWVAVITPGSNTIYYADTVKGRFTISRDNAKNSLYLQMNSLRAEDTAVYYCAREYYSYDEGFAYWGQGTLVTVSS VL: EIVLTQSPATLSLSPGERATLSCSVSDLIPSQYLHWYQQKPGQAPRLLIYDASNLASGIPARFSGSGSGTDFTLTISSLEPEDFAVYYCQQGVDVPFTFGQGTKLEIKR"
quantity_kind = "kon"
reading = 653000

